# assay.summary: Tmax in db/db mouse at 30 mg/kg, po
# Assay type: ADME, organism-based
# cond: in vivo
endpoint.name: Tmax (min)

{"compound": "COc1cc(C(F)(F)F)ccc1COCC(O)CN1CCC(N2Cc3ccccc3C2=O)CC1.O=C(O)/C=C/C(=O)O (configuration not stated)", "Tmax [min]": 30}
{"compound": "COc1cc(C(F)(F)F)ccc1COCC(O)CN1CCC(C(=O)Nc2ccccc2)CC1 (configuration not stated)", "Tmax [min]": 30}

###

# tested.on: Sodium channel protein type 5 subunit alpha (Homo sapiens, UniProt Q14524)
# assay.summary: Inhibition of human NaV1.5 by IonWorks quattro automated electrophysiology assay
endpoint.name: pIC50
Schema: pIC50 number; meaning minus log10 of the concentration expressed in molar units.

Use the examples below as a reference point.
{"compound": "COc1cc(C(F)(F)F)ccc1OCC(O)CN1CCC(N2Cc3ccccc3C2=O)CC1 (stereo not given)", "pIC50": 5.25}
{"compound": "O=C(c1ccccc1)c1cccc(OCC(O)CN2CCC(N3Cc4ccccc4C3=O)CC2)c1 (stereo not given)", "pIC50": 5.43}
{"compound": "O=C1COc2c(cccc2N2CCN(CC(O)COc3ccccc3C(=O)c3ccccc3)CC2)N1 (stereo not given)", "pIC50": 4.70}
{"compound": "O=C(NC1CCN(CC(O)COc2ccccc2C(=O)c2ccccc2)CC1)c1ccccc1 (stereo not given)", "pIC50": 5.31}
{"compound": "O=C1c2ccccc2CN1C1CCN(CC(O)COc2ccc(C(F)(F)F)cc2)CC1 (stereo not given)", "pIC50": 5.55}
{"compound": "COc1ccccc1OCC(O)CN1CCC(N2Cc3ccccc3C2=O)CC1 (stereo not given)", "pIC50": 4.11}
{"compound": "COc1cccc(OCC(O)CN2CCC(N3Cc4ccccc4C3=O)CC2)c1 (stereo not given)", "pIC50": 5.00}
{"compound": "COc1ccc(OCC(O)CN2CCC(N3Cc4ccccc4C3=O)CC2)cc1 (stereo not given)", "pIC50": 4.89}

pIC50 for O=C1c2ccccc2CN1C1CCN(CC(O)COc2ccccc2C(F)(F)F)CC1 (stereo not given) ? 5.15

Would you kindly repeat that for O=C(Nc1ccccc1)C1CCN(CC(O)COc2ccc(C(F)(F)F)cc2)CC1 (stereo not given) ? 5.47

###

# tested.on: Sodium channel protein type 9 subunit alpha (Mus musculus, UniProt Q62205)
# Sequence (Q62205 whole entry): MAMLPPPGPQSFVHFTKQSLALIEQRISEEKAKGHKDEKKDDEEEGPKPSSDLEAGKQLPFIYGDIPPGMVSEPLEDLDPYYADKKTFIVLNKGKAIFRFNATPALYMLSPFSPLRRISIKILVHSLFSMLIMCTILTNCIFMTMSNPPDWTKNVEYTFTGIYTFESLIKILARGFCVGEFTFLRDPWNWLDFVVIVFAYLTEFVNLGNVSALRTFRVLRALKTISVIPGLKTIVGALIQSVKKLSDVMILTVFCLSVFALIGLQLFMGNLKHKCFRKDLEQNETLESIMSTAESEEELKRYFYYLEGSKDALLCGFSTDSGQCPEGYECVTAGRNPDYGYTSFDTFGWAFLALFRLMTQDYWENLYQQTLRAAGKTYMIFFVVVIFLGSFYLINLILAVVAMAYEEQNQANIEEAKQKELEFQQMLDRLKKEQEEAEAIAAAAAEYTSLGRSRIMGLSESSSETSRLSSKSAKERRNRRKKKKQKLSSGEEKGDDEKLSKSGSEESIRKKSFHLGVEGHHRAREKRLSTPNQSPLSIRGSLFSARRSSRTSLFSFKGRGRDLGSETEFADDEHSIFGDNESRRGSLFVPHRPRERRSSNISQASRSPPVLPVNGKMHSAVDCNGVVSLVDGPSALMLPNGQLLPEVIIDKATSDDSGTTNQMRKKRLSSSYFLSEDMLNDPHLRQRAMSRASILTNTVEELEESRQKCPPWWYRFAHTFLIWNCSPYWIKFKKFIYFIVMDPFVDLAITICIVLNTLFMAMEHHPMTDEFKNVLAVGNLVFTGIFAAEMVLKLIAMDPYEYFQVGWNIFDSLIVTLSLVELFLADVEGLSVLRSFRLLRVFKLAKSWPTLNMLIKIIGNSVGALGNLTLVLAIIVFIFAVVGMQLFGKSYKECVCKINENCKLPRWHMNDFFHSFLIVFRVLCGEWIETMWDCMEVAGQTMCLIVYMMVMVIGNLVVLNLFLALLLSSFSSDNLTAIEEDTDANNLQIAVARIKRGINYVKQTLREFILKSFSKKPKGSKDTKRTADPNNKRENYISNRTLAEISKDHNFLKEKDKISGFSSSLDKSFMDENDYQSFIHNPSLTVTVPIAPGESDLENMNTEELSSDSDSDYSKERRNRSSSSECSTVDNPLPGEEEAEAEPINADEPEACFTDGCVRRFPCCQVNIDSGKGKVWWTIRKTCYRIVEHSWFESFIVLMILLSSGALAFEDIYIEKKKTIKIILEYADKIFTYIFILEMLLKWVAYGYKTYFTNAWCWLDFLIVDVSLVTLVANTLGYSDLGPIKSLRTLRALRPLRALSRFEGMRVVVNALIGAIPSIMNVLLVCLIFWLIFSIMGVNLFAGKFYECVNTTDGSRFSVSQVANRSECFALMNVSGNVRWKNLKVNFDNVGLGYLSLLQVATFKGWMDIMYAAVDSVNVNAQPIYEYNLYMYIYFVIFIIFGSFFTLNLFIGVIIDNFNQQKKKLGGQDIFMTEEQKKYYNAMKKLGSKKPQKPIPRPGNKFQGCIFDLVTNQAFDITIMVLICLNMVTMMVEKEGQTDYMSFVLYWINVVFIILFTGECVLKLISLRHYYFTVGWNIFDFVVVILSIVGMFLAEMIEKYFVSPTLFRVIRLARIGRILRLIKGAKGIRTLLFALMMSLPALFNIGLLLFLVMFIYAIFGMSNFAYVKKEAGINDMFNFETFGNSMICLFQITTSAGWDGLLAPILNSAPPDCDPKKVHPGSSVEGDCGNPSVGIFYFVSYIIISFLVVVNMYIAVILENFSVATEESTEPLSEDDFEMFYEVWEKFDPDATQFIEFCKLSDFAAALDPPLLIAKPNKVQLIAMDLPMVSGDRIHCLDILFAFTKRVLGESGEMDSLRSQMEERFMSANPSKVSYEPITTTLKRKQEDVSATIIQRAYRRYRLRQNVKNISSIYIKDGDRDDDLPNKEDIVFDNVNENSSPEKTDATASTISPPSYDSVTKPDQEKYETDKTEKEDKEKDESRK
# assay.summary: Inhibition of mouse NaV1.7 by IonWorks quattro automated electrophysiology assay
endpoint.name: IC50 (nM)

{"compound": "O=C(c1ccccc1)c1ccccc1OCC(O)CN1CCC(C(=O)Nc2ccccc2)CC1 (stereo not drawn)", "unit.abbrev": "nM", "IC50": 1000}
{"compound": "O=C1CCc2c(cccc2C2CCN(CC(O)COc3ccccc3C(=O)c3ccccc3)CC2)N1 (stereo not drawn)", "unit.abbrev": "nM", "IC50": 16000}
{"compound": "COc1cc(C(F)(F)F)ccc1OCC(O)CN1CCC(N2Cc3ccccc3C2=O)CC1 (stereo not drawn)", "unit.abbrev": "nM", "IC50": 330}

A. O=C1c2ccccc2CN1C1CCN(CC(O)COc2cccc(C(F)(F)F)c2)CC1 (stereo not drawn)
B. O=C(c1ccccc1)c1ccccc1OCC(O)CN1CCC(N2Cc3ccccc3C2=O)CC1 (stereo not drawn)
C. O=C1c2ccccc2CN1C1CCN(CC(O)COc2ccc(C(F)(F)F)cc2)CC1 (stereo not drawn)
D. Cc1cccc(C)c1OCC(C)N.Cl (stereo not drawn) [MEXILETINE HYDROCHLORIDE]
E. O=C1CCc2c(cccc2N2CCN(CC(O)COc3ccccc3C(=O)c3ccccc3)CC2)N1 (stereo not drawn)
Form: Sort by [IC50] Order [ ascending ] Thanks in advance for listing the labels in the requested order. C, A, B, E, D

###

# tested.on: Sodium channel protein type 1 subunit alpha (Homo sapiens)
# assay.summary: Inhibition of human NaV1.1 by IonWorks quattro automated electrophysiology assay
pIC50: −log10 of the molar value.
endpoint.name: pIC50

Use the examples below as a reference point.
{"molecule": "O=C1c2ccccc2CN1C1CCN(CC(O)COc2ccc(C(F)(F)F)cc2)CC1 (stereo not given)", "value.observed": 5.74}
{"molecule": "O=C(NC1CCN(CC(O)COc2ccccc2C(=O)c2ccccc2)CC1)c1ccccc1 (stereo not given)", "value.observed": 5.49}
{"molecule": "O=C1c2ccccc2CN1C1CCN(CC(O)COc2ccccc2)CC1 (stereo not given)", "value.observed": 5.10}
{"molecule": "COc1cccc(OCC(O)CN2CCC(N3Cc4ccccc4C3=O)CC2)c1 (stereo not given)", "value.observed": 5.52}
{"molecule": "O=C(NC1CCN(CC(O)COc2ccc(C(F)(F)F)cc2)CC1)c1ccccc1 (stereo not given)", "value.observed": 6.10}

P. COc1ccccc1OCC(O)CN1CCC(N2Cc3ccccc3C2=O)CC1 (stereo not given)
Q. O=C1CCc2c(cccc2C2CCN(CC(O)COc3ccccc3C(=O)c3ccccc3)CC2)N1 (stereo not given)
Consider entries P and Q . Which has the numerically lower pIC50? Which one? Tell me its label. P
(P: 4.72, Q: 5.15)

A. O=C1CCc2c(cccc2N2CCN(CC(O)COc3ccccc3C(=O)c3ccccc3)CC2)N1 (stereo not given)
B. O=C(Nc1ccccc1)C1CCN(CC(O)COc2ccc(C(F)(F)F)cc2)CC1 (stereo not given)
Given the listed records, identify the one among A and B with higher pIC50. Which one? Tell me its label. B
(B: 5.51, A: 4.68)

###

# tested.on: Sodium channel protein type 9 subunit alpha (Homo sapiens, UniProt Q15858)
# Sequence (Q15858 whole entry): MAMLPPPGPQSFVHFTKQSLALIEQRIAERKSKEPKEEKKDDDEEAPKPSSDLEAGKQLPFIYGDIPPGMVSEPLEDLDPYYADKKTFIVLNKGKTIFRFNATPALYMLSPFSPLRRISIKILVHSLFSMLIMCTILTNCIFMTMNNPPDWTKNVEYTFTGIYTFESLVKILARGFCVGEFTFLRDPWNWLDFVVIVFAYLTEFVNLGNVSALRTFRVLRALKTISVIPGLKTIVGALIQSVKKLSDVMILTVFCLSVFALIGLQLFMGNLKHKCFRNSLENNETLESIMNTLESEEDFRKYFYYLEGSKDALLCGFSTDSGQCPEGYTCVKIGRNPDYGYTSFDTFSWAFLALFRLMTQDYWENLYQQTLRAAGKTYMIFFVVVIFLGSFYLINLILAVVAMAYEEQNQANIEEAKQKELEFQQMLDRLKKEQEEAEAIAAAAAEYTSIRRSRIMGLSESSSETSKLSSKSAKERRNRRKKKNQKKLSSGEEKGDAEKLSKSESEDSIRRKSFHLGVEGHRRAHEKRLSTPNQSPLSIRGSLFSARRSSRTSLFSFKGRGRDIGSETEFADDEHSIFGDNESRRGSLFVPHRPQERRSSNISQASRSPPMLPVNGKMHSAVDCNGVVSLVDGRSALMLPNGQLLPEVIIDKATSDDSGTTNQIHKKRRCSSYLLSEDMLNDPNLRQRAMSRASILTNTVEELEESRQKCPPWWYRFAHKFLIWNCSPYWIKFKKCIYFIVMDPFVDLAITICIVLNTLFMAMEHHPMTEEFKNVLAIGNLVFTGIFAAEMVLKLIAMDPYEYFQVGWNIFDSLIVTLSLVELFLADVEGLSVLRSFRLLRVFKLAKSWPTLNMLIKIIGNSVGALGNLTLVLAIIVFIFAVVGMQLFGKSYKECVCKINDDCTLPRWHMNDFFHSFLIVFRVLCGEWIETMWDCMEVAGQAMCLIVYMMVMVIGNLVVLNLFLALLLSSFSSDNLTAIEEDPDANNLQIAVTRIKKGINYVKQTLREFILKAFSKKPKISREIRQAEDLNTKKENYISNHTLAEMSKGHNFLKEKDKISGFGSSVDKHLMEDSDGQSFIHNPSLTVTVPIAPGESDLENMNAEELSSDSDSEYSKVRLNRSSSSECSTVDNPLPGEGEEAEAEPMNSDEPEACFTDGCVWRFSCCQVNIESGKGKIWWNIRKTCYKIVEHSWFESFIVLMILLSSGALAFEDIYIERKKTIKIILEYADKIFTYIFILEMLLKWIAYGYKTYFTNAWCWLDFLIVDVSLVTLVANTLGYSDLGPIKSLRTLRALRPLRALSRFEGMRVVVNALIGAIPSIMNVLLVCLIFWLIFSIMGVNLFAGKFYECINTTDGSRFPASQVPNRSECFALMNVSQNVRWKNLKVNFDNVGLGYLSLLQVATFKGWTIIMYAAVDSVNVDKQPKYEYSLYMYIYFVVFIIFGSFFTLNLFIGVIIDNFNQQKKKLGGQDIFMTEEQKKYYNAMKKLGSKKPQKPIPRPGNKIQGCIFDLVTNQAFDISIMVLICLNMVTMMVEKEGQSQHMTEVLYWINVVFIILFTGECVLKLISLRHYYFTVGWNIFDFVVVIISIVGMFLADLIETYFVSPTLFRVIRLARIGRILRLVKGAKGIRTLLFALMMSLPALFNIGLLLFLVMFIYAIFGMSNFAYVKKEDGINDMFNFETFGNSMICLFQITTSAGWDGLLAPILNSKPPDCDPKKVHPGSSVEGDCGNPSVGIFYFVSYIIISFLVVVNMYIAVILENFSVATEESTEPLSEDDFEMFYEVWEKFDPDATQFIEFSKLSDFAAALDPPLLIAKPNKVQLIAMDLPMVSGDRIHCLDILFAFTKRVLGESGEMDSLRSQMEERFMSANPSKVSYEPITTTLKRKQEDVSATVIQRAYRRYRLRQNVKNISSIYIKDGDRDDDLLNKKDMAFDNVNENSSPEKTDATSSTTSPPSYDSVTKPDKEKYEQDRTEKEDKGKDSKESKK
# assay.summary: Inhibition of human NaV1.7 by IonWorks quattro automated electrophysiology assay
pIC50: −log10 of the molar value.
endpoint.name: pIC50

{"compound": "O=C(c1ccccc1)c1cccc(OCC(O)CN2CCC(N3Cc4ccccc4C3=O)CC2)c1 (stereo not given)", "value.observed": 6.05}
{"compound": "O=C1CCc2c(cccc2C2CCN(CC(O)COc3ccccc3C(=O)c3ccccc3)CC2)N1 (stereo not given)", "value.observed": 5.89}

I. COc1cc(C(F)(F)F)ccc1COCC(O)CN1CCC(C(=O)Nc2ccccc2)CC1 (stereo not given)
II. COc1ccccc1OCC(O)CN1CCC(N2Cc3ccccc3C2=O)CC1 (stereo not given)
III. O=C(Nc1ccccc1)C1CCN(CC(O)COc2ccc(C(F)(F)F)cc2)CC1 (stereo not given)
// sort entries: pIC50, high to low Thanks in advance for listing the labels in the requested order. III, I, II
(III: 6.00, I: 5.77, II: 5.28)

###

Reported selectivity ratio values for a set of compounds
# assay.summary: Therapeutic index, ratio of toxic ID50 in mouse to analgesic activity ED50 in mouse
# Assay type: organism-based
# cond: in vivo, read-out: TI
The response must contain the number and no unit.

{"compound": "COc1ccccc1OCC(O)CN1CCC(N2Cc3ccccc3C2=O)CC1 (configuration not stated)", "value.observed": 2.9}

selectivity ratio for COc1cc(C(F)(F)F)ccc1COCC(O)CN1CCC(C(=O)Nc2ccccc2)CC1 (configuration not stated) ? 5.8

###

# assay.summary: AUC in db/db mouse at 30 mg/kg, po
# Type: ADME, organism-based
# cond: in vivo
endpoint.name: AUC (ng·h/mL)

a. COc1cc(C(F)(F)F)ccc1COCC(O)CN1CCC(C(=O)Nc2ccccc2)CC1 (configuration not stated)
b. COc1cc(C(F)(F)F)ccc1COCC(O)CN1CCC(N2Cc3ccccc3C2=O)CC1.O=C(O)/C=C/C(=O)O (configuration not stated)
Given the listed records, identify the one among a and b with higher AUC. Which one? Tell me its label. b

###

# tested.on: Sodium channel protein type 9 subunit alpha (Homo sapiens)
# assay.summary: Inhibition of human NaV1.7 by IonWorks quattro automated electrophysiology assay
endpoint.name: IC50 (nM)

Use the examples below as a reference point.
{"molecule": "COc1cccc(OCC(O)CN2CCC(N3Cc4ccccc4C3=O)CC2)c1 (centres undefined)", "unit.abbrev": "nM", "value.observed": 1400}
{"molecule": "O=C(c1ccccc1)c1ccccc1OCC(O)CN1CCC(N2C(=O)COc3ccccc32)CC1 (centres undefined)", "unit.abbrev": "nM", "value.observed": 1100}

I. O=C(c1ccccc1)c1ccccc1OCC(O)CN1CCC(N2Cc3ccccc3C2=O)CC1 (centres undefined)
II. O=C(NC1CCN(CC(O)COc2ccc(C(F)(F)F)cc2)CC1)c1ccccc1 (centres undefined)
Given the listed records, identify the one among I and II with higher IC50. Which one? Tell me its label. I
(I: 1500 nM, II: 700 nM)

###

# tested.on: Sodium channel protein type 1 subunit alpha (Homo sapiens)
# assay.summary: Inhibition of human NaV1.1 by IonWorks quattro automated electrophysiology assay
pIC50: −log10 of the molar value.
endpoint.name: pIC50

Use the examples below as a reference point.
{"molecule": "O=C1c2ccccc2CN1C1CCN(CC(O)COCc2ccc(C(F)(F)F)cc2)CC1 (stereo not given)", "pIC50": 5.52}
{"molecule": "O=C(c1ccccc1)c1ccccc1OCC(O)CN1CCC(N2C(=O)Cc3ccccc32)CC1 (stereo not given)", "pIC50": 4.59}

1. O=C(c1ccccc1)c1ccccc1OCC(O)CN1CCC(N2Cc3ccccc3C2=O)CC1 (stereo not given)
2. COc1cc(C(F)(F)F)ccc1COCC(O)CN1CCC(N2Cc3ccccc3C2=O)CC1.O=C(O)/C=C/C(=O)O (stereo not given)
Consider entries 1 and 2 . Which has the numerically lower pIC50? Which one? Tell me its label. 1
(1: 5.48, 2: 5.82)
